# subject.of.test: C5AR1 (Homo sapiens, UniProt P21730)
# Construct: host or cells: CHO-K1
# Sequence (P21730 whole entry): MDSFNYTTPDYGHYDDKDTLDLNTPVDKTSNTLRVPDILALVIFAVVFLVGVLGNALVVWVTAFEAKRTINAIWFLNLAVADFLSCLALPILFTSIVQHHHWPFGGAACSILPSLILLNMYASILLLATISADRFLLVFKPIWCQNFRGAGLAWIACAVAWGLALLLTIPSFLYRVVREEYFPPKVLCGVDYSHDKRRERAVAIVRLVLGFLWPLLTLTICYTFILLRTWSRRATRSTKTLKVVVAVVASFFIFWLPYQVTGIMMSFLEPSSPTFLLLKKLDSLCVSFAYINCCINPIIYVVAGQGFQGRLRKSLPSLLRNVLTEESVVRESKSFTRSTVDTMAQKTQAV
# protocol.description: In vitro assay: antagonism of C5a-induced beta-arrestin recruitment (PathHunter) in CHO-K1 C5AR1 beta-arrestin cell line
# Format: cell-based
# cond: antagonistic activity, 1-10 nM C5a agonist, geometric mean where several measurements, read-out: C5aR IC50
recorded.endpoint: IC50 (nM)

[[record]]
compound = "Cc1cccc(F)c1N1CCC(N2Cc3cn(C(C)C(F)F)nc3N(Cc3ccccc3C(F)(F)F)C2=O)CC1 (single isomer, unassigned) [Example 188]"
recorded_endpoint = "IC50"
display_unit = "nM"
test_result = 10

[[record]]
compound = "Cc1cccc(F)c1N1CCC(N2Cc3c(cnn3CC(C)(C)F)N(Cc3ccccc3C(F)(F)F)C2=O)CC1 [Example 177]"
recorded_endpoint = "IC50"
display_unit = "nM"
test_result = 48

[[record]]
compound = "Cc1cccc(F)c1N1CCC(N2Cc3cn(CC4(F)COC4)nc3N(Cc3ccccc3C(F)(F)F)C2=O)CC1 [Example 164]"
recorded_endpoint = "IC50"
display_unit = "nM"
test_result = 13

[[record]]
compound = "COc1nccc(C(F)F)c1N1CCC(N2C(=O)N(Cc3ccccc3C3CC3)c3n[nH]cc3C2C)CC1 (single isomer, unassigned) [Example 370]"
recorded_endpoint = "IC50"
display_unit = "nM"
test_result = 19

[[record]]
compound = "CC1c2cn(C)nc2N(Cc2ccccc2C2CC2)C(=O)N1C1CCN(c2c(F)cccc2C2CC2)CC1 (single isomer, unassigned) [Example 325]"
recorded_endpoint = "IC50"
display_unit = "nM"
test_result = 14

[[record]]
compound = "Cc1cccc(F)c1N1CCC(N2Cc3cn(C4CCNC4)nc3N(Cc3ccccc3C(F)(F)F)C2=O)CC1 (stereo not drawn) [Example 94]"
recorded_endpoint = "IC50"
display_unit = "nM"
test_result = 727

[[record]]
compound = "Cc1cccc(F)c1N1CCC(N2Cc3cn(C)nc3N(Cc3c(F)cc(F)cc3OC(C)C)C2=O)CC1 [Example 236]"
recorded_endpoint = "IC50"
display_unit = "nM"
test_result = 312

[[record]]
compound = "Cc1cccc(F)c1N1CCC(N2Cc3nn(C)nc3N(Cc3ccccc3C(F)(F)F)C2=O)CC1 [Example 81]"
recorded_endpoint = "IC50"
display_unit = "nM"
test_result = 21


A: Cn1cc2c(n1)N(Cc1ccccc1C1CC1)C(=O)N(C1CCN(c3c(F)cccc3Cl)CC1)C2 [Example 284]
B: Cn1cc2c(n1)CN(C1CCN(c3c(F)cccc3Cl)CC1)C(=O)N2Cc1ccccc1C(F)(F)F [Example 302]
C: Cc1cccc(F)c1N1CCC(N2Cc3cn(C)nc3N(Cc3ccccc3OCC3CC3)C2=O)CC1 [Example 248]
D: CC1c2cn(C)nc2N(Cc2ccccc2C2CC2)C(=O)N1C1CCN(c2c(F)cccc2Cl)CC1 (single isomer, unassigned) [Example 322]
E: COc1nccc(Cl)c1N1CCC(N2C(=O)N(Cc3ccccc3C3CC3)c3nn(C)cc3C2C)CC1 (single isomer, unassigned) [Example 378]
Ranking field: IC50; order: falling. Give me the labels in the order the question wants. B, C, A, E, D
(B: 48 nM, C: 16 nM, A: 9 nM, E: 6 nM, D: 3 nM)

a: Cc1cccc(F)c1N1CCC(N2Cc3cn(C4CC4)nc3N(Cc3ccccc3C(F)(F)F)C2=O)CC1 [Example 174]
b: Cc1cccc(F)c1N1CCC(N2Cc3cn(CCN(C)C)nc3N(Cc3ccccc3C(F)(F)F)C2=O)CC1 [Example 60]
c: COc1nccc(C)c1N1CCC(N2Cc3cn(C)nc3N(Cc3ncccc3C(F)(F)F)C2=O)CC1 [Example 138]
d: COc1nccc(C)c1N1CCC(N2C(=O)N(Cc3ccccc3C3CC3)c3cn(C4CC4)nc3C2C)CC1 (single isomer, unassigned) [Example 293]
Ranking field: IC50; order: falling. Give me the labels in the order the question wants. b, d, c, a

a: Cn1cc2c(n1)N(Cc1ccccc1C1CC1)C(=O)N(C1CCN(c3c(F)cccc3F)CC1)C2 [Example 285]
b: Cc1cccc(F)c1N1CCC(N2Cc3nn(CC(C)(C)F)cc3N(Cc3ccccc3C(F)(F)F)C2=O)CC1 [Example 176]
I need your help: which of the pair a , b has higher IC50? Use the label to indicate which entry you chose. b
(b: 16 nM, a: 9 nM)

Recorded values, source patent US11608341B2.
